# TESTED_TARGET: Dual specificity protein kinase CLK1 (Homo sapiens)
# Sequence (P49759 whole entry): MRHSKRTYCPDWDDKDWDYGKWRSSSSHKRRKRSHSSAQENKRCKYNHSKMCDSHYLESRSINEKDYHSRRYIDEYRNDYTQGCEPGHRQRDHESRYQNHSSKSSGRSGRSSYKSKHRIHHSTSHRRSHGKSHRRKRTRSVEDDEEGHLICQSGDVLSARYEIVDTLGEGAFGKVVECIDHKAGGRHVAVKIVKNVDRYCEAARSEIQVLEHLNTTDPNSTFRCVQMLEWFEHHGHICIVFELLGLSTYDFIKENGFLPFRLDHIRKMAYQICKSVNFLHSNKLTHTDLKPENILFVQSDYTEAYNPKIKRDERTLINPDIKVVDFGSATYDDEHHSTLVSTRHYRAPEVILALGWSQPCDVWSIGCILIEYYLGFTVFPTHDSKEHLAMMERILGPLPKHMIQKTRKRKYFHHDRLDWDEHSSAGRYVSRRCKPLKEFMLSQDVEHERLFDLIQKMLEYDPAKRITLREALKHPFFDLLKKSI
# EXPERIMENT: Inhibition of GST-tagged human recombinant CLK1 expressed in Escherichia coli using RS peptide as substrate
pIC50: −log10 of the molar value.
MEASUREMENT_KIND: pIC50

COMPOUND_STRUCTURE_STRING | TESTED_TARGET | READING
Nc1ncc2cc3cnccc3c([N+](=O)[O-])c2n1 | Dual specificity protein kinase CLK1 (Homo sapiens) | 7.16

P = Nc1ncc2cc3cnccc3cc2n1
Q = Nc1ncc2cc3cnccc3c(N)c2n1
Lower value for measured pIC50? Options: P , Q Mark your selection by writing its label.
P
(P: 6.72, Q: 7.39)
